// data source = patent US20250163043A1

SYSTEM_NAME: CDK9/CycT1 (Homo sapiens, UniProt P50750)
Sequence (P50750 whole entry): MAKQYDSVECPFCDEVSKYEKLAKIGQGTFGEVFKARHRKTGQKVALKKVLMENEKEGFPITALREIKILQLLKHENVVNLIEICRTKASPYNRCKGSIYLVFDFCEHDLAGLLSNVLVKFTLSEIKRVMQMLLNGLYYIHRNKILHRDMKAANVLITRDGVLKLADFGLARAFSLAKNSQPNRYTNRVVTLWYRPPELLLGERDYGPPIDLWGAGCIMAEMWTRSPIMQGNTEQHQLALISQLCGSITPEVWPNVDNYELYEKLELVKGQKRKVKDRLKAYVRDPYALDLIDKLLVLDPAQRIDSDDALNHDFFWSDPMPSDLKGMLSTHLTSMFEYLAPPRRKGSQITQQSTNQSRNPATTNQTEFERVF
Sequence (O60563 whole entry partner): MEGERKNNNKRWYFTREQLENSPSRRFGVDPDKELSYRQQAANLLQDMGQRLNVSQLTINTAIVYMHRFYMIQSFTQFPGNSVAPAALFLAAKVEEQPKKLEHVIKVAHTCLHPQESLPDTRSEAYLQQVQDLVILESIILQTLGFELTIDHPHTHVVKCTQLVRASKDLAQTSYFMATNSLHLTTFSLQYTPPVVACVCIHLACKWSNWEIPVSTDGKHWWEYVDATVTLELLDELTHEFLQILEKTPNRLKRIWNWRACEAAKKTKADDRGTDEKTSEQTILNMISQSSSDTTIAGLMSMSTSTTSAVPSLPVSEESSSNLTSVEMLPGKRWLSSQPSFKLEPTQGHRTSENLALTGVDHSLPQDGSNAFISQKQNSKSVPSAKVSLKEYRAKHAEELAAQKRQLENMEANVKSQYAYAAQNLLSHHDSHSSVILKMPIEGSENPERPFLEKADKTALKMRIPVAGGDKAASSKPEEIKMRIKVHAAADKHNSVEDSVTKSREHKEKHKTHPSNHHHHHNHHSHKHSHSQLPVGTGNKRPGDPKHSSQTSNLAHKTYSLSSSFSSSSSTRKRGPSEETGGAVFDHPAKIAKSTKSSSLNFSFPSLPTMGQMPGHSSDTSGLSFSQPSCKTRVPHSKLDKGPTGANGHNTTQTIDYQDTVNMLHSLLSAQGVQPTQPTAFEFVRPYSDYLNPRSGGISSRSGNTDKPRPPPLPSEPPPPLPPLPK
METHOD: ADP-Glo kinase assay on CDK enzymatic activity, CDK9/CycT1
Type: biochemical
ASSAY_CONDITIONS: 10 concentrations from 10 μM, 4-fold, 60 min room temperature
So I've got a bunch of compounds here, and I need their IC50 values.
One number for each entry, in nM.

CC(=O)N[C@H]1C[C@@H](Nc2cc3c(NC(C)C)nc(C#N)cc3cn2)C1 [Compound 167] : 2

Look at each compound and report its IC50.
1. CC(Nc1nc(C#N)cc2cnc(N[C@H]3CCCNC3)cc12)C(F)(F)F (stereo partly drawn) [Compound 61]
2. CC(C)(C)Nc1nc(C#N)cc2cnc(NC(=O)[C@H]3CCCNC3)cc12 [Compound 177]
3. CCNc1nc(C#N)cc2cnc(N[C@H]3C[C@H](NC)C3)nc12 [Compound C43]

1. 3
2. 19
3. 1

====

SYSTEM_NAME: CDK3/CycE1 (Homo sapiens)
METHOD: ADP-Glo kinase assay on CDK enzymatic activity, CDK3/CycE1
Assay type: biochemical
ASSAY_CONDITIONS: 10 concentrations from 10 μM, 4-fold, 60 min room temperature
// map IC50 onto a label; ranges group A (below 70 nM), group B (70 nM to below 600 nM), group C (600 nM or more)

CC(C)Nc1nc(C#N)cc2cnc(N[C@H]3CC[C@H](O)C3)cc12 : group A
CC(C)Nc1nc(C(F)F)cc2cnc(N[C@H]3CC[C@@H](N)C3)cc12 : group B

Class label required: "CC(C)(C)Nc1nc(C#N)cc2cnc(N[C@H]3CCCNC3)cc12"
group A

Class label required: "CC(=O)N[C@@H]1CCC[C@H](C(=O)Nc2cc3c(N4CC[C@@H](O)C4)nc(C#N)cc3cn2)C1"
group C

Class label required: "FC(F)c1cc2cnc(N[C@H]3CCCNC3)cc2c(O[C@@H]2CCOC2)n1"
group B

Class label required: "CC(=O)N[C@@H]1CCC[C@H](C(=O)Nc2cc3c(NC(CCO)CCO)nc(C#N)cc3cn2)C1"
group C

Class label required: "CC(C)Nc1nc(C#N)cc2cnc(N[C@H]3CC[C@H](C)NC3)nc12"
group C

Class label required: "CC1(Nc2nc(C#N)cc3cnc(N[C@H]4CC[C@H](N)C4)cc23)CC1"
group B

Class label required: "CC(C)Nc1nc(C#N)cc2cnc(NC3CC4(CNC4)C3)nc12"
group A

Class label required: "CCOc1nc(C(F)F)cc2cnc(N[C@H]3C[C@H](N)C3)cc12"
group C

Class label required: "CC(C)Oc1nc(C#N)cc2cnc(N[C@H]3CCCNC3)cc12"
group A

Class label required: "CC(C)Nc1nc(C#N)cc2cnc(N[C@H]3CCCNCC3)nc12"
group C

Class label required: "CC(C)Nc1nc(C#N)cc2cnc(N[C@H]3CCCOC3)nc12"
group B

Class label required: "CC(C)Nc1nc(C#N)cc2cnc(N[C@H]3CC[C@@H](O)C3)cc12"
group A

Class label required: "CC(C)Nc1nc(C#N)cc2cnc(N[C@H]3C[C@@H](N)C3)nc12"
group B

Class label required: "CC(C)Nc1nc(C#N)cc2cnc(N[C@H]3CC[C@@H](N)C3)cc12"
group C

Class label required: "CC(C)Nc1nc(C#N)cc2cnc(N[C@H]3CC[C@H](O)C3)nc12"
group A

====

SYSTEM_NAME: CDK2/CycA2 (Homo sapiens)
METHOD: ADP-Glo kinase assay on CDK enzymatic activity, CDK2/CycA2
Assay type: biochemical
ASSAY_CONDITIONS: 10 concentrations from 10 μM, 4-fold, 60 min room temperature
So I've got a bunch of compounds here, and I need their IC50 values.
Answers are plain numbers, in nM.

CC(Nc1nc(C#N)cc2cnc(N[C@H]3CCCNC3)cc12)C(F)(F)F (some centres unmarked) : 227
CC1(Oc2nc(C#N)cc3cnc(N[C@H]4CCCNC4)cc23)CC1 : 1010
CC(C)Nc1nc(C(F)F)cc2cnc(N[C@H]3CC[C@@H](N)C3)cc12 : 161
CC(C)Nc1nc(C#N)cc2cnc(N[C@H]3CCCOC3)nc12 : 29
CC(C)Nc1nc(C#N)cc2cnc(N[C@H]3C[C@@H](N4CCN(C)CC4)C3)nc12 : 59

Look at each compound and report its IC50.
1. CC(C)Nc1nc(C#N)cc2cnc(N[C@H]3CC[C@H](N)C3)cc12
2. CC(C)Nc1nc(C#N)cc2cnc(N[C@@H]3CNCC[C@@H]3F)cc12
3. CC(C)Nc1nc(C#N)cc2cnc(NC3CCNCC3)nc12
4. FC(F)c1cc2cnc(N[C@H]3CCCNC3)cc2c(O[C@@H]2CCOC2)n1
5. N#Cc1cc2cnc(N[C@H]3CCCNC3)cc2c(O[C@@H]2CCOC2)n1
6. N#Cc1cc2cnc(N[C@H]3CCCNC3)cc2c(NC2CCC2)n1
7. CC(C)Nc1nc(C#N)cc2cnc(N[C@H]3CCCNCC3)nc12

[50, 2020, 504, 337, 2320, 146, 388]

Look at each compound and report its IC50.
1. CC(=O)N[C@@H]1CCC[C@H](C(=O)Nc2cc3c(NC(C)C)nc(CCO)cc3cn2)C1
2. CC1(Nc2nc(C#N)cc3cnc(N[C@H]4C[C@](C)(N)C4)cc23)CC1
3. N#Cc1cc2cnc(N[C@H]3CCCNC3)cc2c(C2=CCCCC2)n1

284
434
844

====

So I've got a bunch of compounds here, and I need their IC50 values.
SYSTEM_NAME: CDK3/CycE1 (Homo sapiens, UniProt Q00526)
Sequence (Q00526 whole entry, species assumed): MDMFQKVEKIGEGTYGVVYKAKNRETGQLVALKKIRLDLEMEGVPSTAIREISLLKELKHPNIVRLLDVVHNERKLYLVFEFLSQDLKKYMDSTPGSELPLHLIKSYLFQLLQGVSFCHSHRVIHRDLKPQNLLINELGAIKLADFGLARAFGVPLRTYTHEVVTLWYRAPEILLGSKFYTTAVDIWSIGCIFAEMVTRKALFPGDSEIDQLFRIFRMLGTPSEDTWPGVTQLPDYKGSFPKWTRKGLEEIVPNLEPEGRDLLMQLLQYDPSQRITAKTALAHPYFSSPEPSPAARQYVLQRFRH
Sequence (P24864 whole entry partner, species assumed): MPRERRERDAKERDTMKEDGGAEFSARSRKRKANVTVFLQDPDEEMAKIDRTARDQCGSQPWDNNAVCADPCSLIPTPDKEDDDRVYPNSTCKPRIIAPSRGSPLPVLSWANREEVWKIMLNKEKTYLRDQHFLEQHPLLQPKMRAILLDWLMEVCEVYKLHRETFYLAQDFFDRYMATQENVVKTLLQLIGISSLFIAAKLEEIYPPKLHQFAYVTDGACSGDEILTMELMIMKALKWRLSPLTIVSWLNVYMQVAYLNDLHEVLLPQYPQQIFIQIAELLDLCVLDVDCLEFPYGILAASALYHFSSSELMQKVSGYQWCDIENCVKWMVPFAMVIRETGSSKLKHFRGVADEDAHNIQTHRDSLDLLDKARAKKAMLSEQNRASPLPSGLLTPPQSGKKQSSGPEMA
METHOD: ADP-Glo kinase assay on CDK enzymatic activity, CDK3/CycE1
Format: biochemical
ASSAY_CONDITIONS: 10 concentrations from 10 μM, 4-fold, 60 min room temperature

CC(C)Nc1nc(C#N)cc2cnc(N[C@@H]3CN4CCC3CC4)cc12 : 288 nM
CC(=O)N[C@@H]1CCC[C@H](C(=O)Nc2cc3c(NC4(C)CC4)nc(C#N)cc3cn2)C1 : 750 nM
CC(C)Nc1nc(C#N)cc2cnc(N[C@H]3CC[C@H](N)C3)nc12 : 85 nM
CC(C)Nc1nc(C#N)cc2cnc(NC(=O)[C@H]3CCC[C@H](N)C3)cc12 : 1630 nM

Let us move to another entry and its IC50.
Determine from records and report IC50 for "N#Cc1cc2cnc(N[C@H]3CC[C@H](N)C3)cc2c(NCC2(C#N)CCOCC2)n1"
≥ 12100 nM

====

So I've got a bunch of compounds here, and I need their IC50 values.
SYSTEM_NAME: CDK1/CycE1 (Homo sapiens, UniProt P06493)
Sequence (P06493 whole entry, species assumed, one chain of several): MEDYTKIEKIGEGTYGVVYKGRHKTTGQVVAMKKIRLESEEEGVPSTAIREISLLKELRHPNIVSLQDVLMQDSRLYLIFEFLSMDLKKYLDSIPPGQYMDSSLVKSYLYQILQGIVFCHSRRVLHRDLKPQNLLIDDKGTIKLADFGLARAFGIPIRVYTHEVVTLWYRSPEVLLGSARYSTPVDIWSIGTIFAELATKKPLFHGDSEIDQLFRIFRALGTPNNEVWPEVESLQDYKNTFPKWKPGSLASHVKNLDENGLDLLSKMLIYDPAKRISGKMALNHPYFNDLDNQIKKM
METHOD: ADP-Glo kinase assay on CDK enzymatic activity, CDK1/CycE1
Assay type: biochemical
ASSAY_CONDITIONS: ADP-Glo; 10 concentrations from 10 μM, 4-fold; 60 min room temperature; read-out: CDK1/CycE1/nM (IC50)
Answers are plain numbers, in nM.

Reference set (4 entries):
CC(C)Nc1nc(C#N)cc2cnc(NC3CCNCC3)nc12 : 216
CC(C)Nc1nc(C#N)cc2cnc(N[C@H]3C[C@H](O)C3)nc12 : 11
CC(C)Nc1nc(C#N)cc2cnc(NC34CC(N)(C3)C4)nc12 : 43
CC(C)Nc1nc(C#N)cc2cnc(N[C@H]3C[C@@H](N)C3)nc12 : 95

Look at each compound and report its IC50.
1. N#Cc1cc2cnc(N[C@H]3CCCNC3)cc2c(C2=CCCC2)n1
2. CC(C)(C)Nc1nc(C#N)cc2cnc(N[C@H]3C[C@H](N)C3)nc12
3. CC(C)Nc1nc(C#N)cc2cnc(Nc3cc(CS(C)(=N)=O)ccn3)cc12 (stereo not drawn)
4. CCCNc1nc(C#N)cc2cnc(N[C@H]3C[C@H](N)C3)nc12
5. N#Cc1cc2cnc(N[C@H]3CCCNC3)cc2c(OC2CCCC2)n1
6. CC(C)Nc1nc(C#N)cc2cnc(N[C@H]3C[C@](C)(N)C3)nc12

518
23
144
127
134
34

Look at each compound and report its IC50.
1. N#Cc1cc2cnc(N[C@H]3C[C@H](N)C3)cc2c(N[C@@H]2CCOC2)n1
2. CC(C)Nc1nc(C#N)cc2cnc(N[C@H]3CC[C@H](N4CCOCC4)CC3)nc12
3. CC(C)Nc1nc(C#N)cc2cnc(N[C@H]3CC[C@H](C)NC3)cc12
4. CCN(CC)c1nc(C#N)cc2cnc(N[C@H]3CCCNC3)cc12

272
197
206
638

Look at each compound and report its IC50.
1. CC(=O)N[C@H]1C[C@@H](Nc2cc3c(NC(C)C)nc(C#N)cc3cn2)C1
2. CC(Nc1nc(C#N)cc2cnc(N[C@H]3CCCNC3)cc12)C(F)(F)F (stereo partly drawn)
3. CC(C)Nc1nc(C#N)cc2cnc(N[C@H]3CC[C@H](N)C3)cc12
4. N#Cc1cc2cnc(N[C@H]3CC[C@H](N)C3)cc2c(N[C@@H]2CCOC2)n1
5. CC(C)Nc1nc(C#N)cc2cnc(N[C@H]3CC[C@H](O)C3)nc12

55
173
220
952
3

Look at each compound and report its IC50.
1. CC(C)Nc1nc(C#N)cc2cnc(NC3CC4(CNC4)C3)nc12
2. CC(C)Nc1nc(C(F)F)cc2cnc(N[C@H]3C[C@H](N)C3)cc12
3. CC(C)Oc1nc(C#N)cc2cnc(N[C@H]3C[C@H](N)C3)cc12
4. N#Cc1cc2cnc(N[C@H]3CCCNC3)cc2c(C2=CCCCC2)n1
5. CC(C)Nc1nc(C#N)cc2cnc(N[C@H]3CC[C@H](N)C3)nc12
6. CC(C)Nc1nc(C#N)cc2cnc(N[C@H]3C[C@@H](N4CCN(C)CC4)C3)nc12
7. CC(C)Nc1nc(C#N)cc2cnc(N[C@H]3C[C@H](O)C3)cc12
8. CC(C)(C)Nc1nc(C#N)cc2cnc(N[C@H]3CCCNC3)cc12

[25, 25, 126, 204, 114, 288, 14, 42]
